Test system: Plasmodium berghei
Experiment: Screen against P. berghei liver stage (PbLuc), transformed with Luciferase, at 10uM
Type: functional, HepG2
Conditions: tested at 10 uM
Among all 69,000 compounds or so, about 8,600 (12%) showed an effect of 50% or more. This is one part of a sample in which strong results are shown more often than they occur.
Classification by INHIBITION | ranges: LOW (below 20%), MID (20% to below 40%), HIGH (40% or more)

- COMPOUND: "CC(C)CC(NCc1ccsc1)c1ccccn1 (centres undefined)"
  CAT: "HIGH"
- COMPOUND: "Cc1n[nH]c(C)c1CN1CCC(c2cc(C(C)C)n[nH]2)CC1"
  CAT: "LOW"
- COMPOUND: "COc1ncc(C(=O)N(Cc2cnn(C)c2)C(C)C)cn1"
  CAT: "MID"
- COMPOUND: "COc1ccc(CNC(Cc2ccsc2)c2ccc(C)cn2)c(OC)c1 (centres undefined)"
  CAT: "HIGH"

Query: Class? Entry: CC(=O)N1CCC2(CCCN2Cc2cnn(C)c2)CC1
Result: LOW

Query: Class? Entry: O=C1CCCC2(CCN(C(=O)c3ccccn3)CC2)N1
Result: LOW

Query: Class? Entry: CCN(CC)S(=O)(=O)NCC(O)c1c(Cl)cccc1Cl (centres undefined)
Result: LOW

Query: Class? Entry: Cc1cc(=O)n(C)cc1NC(=O)Cc1ccc(C(F)(F)F)cc1
Result: LOW

Query: Class? Entry: Cc1cc(=O)n(C)cc1NC(=O)Cc1cccc(F)c1
Result: MID

Query: Class? Entry: COc1ccc(CNC(Cc2ccsc2)c2ncccc2C)cc1OC (centres undefined)
Result: HIGH

Query: Class? Entry: CNC(=O)c1nc(CC(=O)Nc2ccc3cc[nH]c3c2)no1
Result: MID

Query: Class? Entry: CC(C)c1cc(C2CCN(C(=O)Cn3cnc4ccccc43)CC2)[nH]n1
Result: HIGH

----------
Test system: Plasmodium berghei
Test: Screen against P. berghei liver stage (PbLuc), transformed with Luciferase, at 10uM
Type: functional, HepG2
Settings: tested at 10 uM
Hit rate of the full screen: of about 69,000 compounds, about 8,600 (12%) showed an effect of 50% or more. The sample holds strong results, similar compounds and a random draw of the others, so the mix is not that of the screen.
METRIC: INHIBITION
Report the figure along with its unit, number first.

Recorded results for 3 compounds are shown here.
- COMPOUND: "CC(=O)N(C)CC(=O)Nc1cnc(-n2ccnc2C)nc1"
  INHIBITION: "95.9%"
- COMPOUND: "Cn1c(CN2CCOCC2)cc(=O)c(O)c1CN1CCOCC1"
  INHIBITION: "5.58%"
- COMPOUND: "Cn1nc(C2CCN(CC(=O)NC3CC3)CC2)n(-c2ccccc2)c1=O"
  INHIBITION: "-21.3%"

Query: Item Cc1csc(C(Cc2ccsc2)NC(=O)CN(C)Cc2cccnc2)n1 (stereo not drawn) has what recorded INHIBITION?
Result: 42.6%

Query: Item Cn1c(CN2CCCC(N3CCCCCC3)C2)cc(=O)n(C)c1=O (stereo not drawn) has what recorded INHIBITION?
Result: -10.9%

Query: Item CCNC(=O)C1(Cc2ccc(-c3ccccc3)cc2)CCCNC1 (stereo not drawn) has what recorded INHIBITION?
Result: -0.232%

Query: Item Cn1c(CN2CCCCC2)cc(=O)c(O)c1CN1CCCCC1 has what recorded INHIBITION?
Result: 74%

Query: Item O=C(C1SCCc2sccc21)N1CCCCC1 (stereo not drawn) has what recorded INHIBITION?
Result: 62%

Query: Item NC(=O)C1CCN(C(=O)C2SCCc3sccc32)CC1 (stereo not drawn) has what recorded INHIBITION?
Result: 69.7%
